Tested on: NCI-H358
Test: relative viability (nuclei count vs DMSO), 5 days (fraction); higher = more cells survive
Conditions: first compound 8 µM
Measured Endpoint: relative viability
Returns: the value as a bare number; no unit string appended.

Worked examples, 4 compounds total:
Compound: O=c1[nH]c2ccccc2n1C1CCN(CCCC(c2ccc(F)cc2)c2ccc(F)cc2)CC1 [Pimozide] + C[C@@H](Oc1cc(-c2cnn(C3CCNCC3)c2)cnc1N)c1c(Cl)ccc(F)c1Cl [Crizotinib] (partner 1 µM)
relative viability: 0.546
--
Compound: O=c1[nH]c2ccccc2n1C1CCN(CCCC(c2ccc(F)cc2)c2ccc(F)cc2)CC1 [Pimozide] + COc1cccc2cc(-c3nc([C@H]4CC[C@H](C(=O)O)CC4)n4ncnc(N)c34)[nH]c12 [OSI-027] (partner 0.5 µM)
relative viability: 0.678
--
Compound: O=c1[nH]c2ccccc2n1C1CCN(CCCC(c2ccc(F)cc2)c2ccc(F)cc2)CC1 [Pimozide] + CS(=O)(=O)CCNCc1ccc(-c2ccc3ncnc(Nc4ccc(OCc5cccc(F)c5)c(Cl)c4)c3c2)o1 [Lapatinib] (partner 2 µM)
relative viability: 0.4
--
Compound: O=c1[nH]c2ccccc2n1C1CCN(CCCC(c2ccc(F)cc2)c2ccc(F)cc2)CC1 [Pimozide] + Nc1nc2[nH]cc(CCc3ccc(C(=O)N[C@@H](CCC(=O)O)C(=O)O)cc3)c2c(=O)[nH]1 [Pemetrexed] (partner 0.2 µM)
relative viability: 0.147

Which measured relative viability value corresponds to O=c1[nH]c2ccccc2n1C1CCN(CCCC(c2ccc(F)cc2)c2ccc(F)cc2)CC1 [Pimozide] + CC(=O)Nc1cccc(-n2c(=O)n(C3CC3)c(=O)c3c(Nc4ccc(I)cc4F)n(C)c(=O)c(C)c32)c1 [Trametinib] (partner 0.02 µM) ?
0.126

Reference for the values: the supplement of paper PMC10307832
